B1: library; numbered along this chain (parent)
chain: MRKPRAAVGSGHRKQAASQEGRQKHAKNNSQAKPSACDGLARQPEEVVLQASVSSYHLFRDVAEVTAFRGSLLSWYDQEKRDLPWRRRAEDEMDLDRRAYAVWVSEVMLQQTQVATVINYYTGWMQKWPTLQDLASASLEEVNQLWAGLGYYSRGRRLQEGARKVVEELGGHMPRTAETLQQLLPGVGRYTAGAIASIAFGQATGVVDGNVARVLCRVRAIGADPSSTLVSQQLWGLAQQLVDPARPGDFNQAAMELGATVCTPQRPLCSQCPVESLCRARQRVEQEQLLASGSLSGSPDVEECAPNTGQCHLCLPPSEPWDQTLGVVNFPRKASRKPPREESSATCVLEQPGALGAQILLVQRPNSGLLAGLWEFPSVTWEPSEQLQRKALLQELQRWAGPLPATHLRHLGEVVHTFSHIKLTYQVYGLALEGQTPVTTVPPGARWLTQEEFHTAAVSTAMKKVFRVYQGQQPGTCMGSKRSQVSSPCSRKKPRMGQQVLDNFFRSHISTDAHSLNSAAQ

Variants of: B1
Assay: 8OG:A repair function score (normalized; synonymous = 0, nonsense = -1) (normalized log-likelihood score); higher = more repair activity (WT-like);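 further: cells sorted at 72 h after reporter transfection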
Conditions: with 8OG:A DNA repair reporter (GFP) in HEK-293 MUTYH KO cells
Parameter threshold = -0.08. Response is Condition met when 8OG:A repair function score meets or exceeds it, else Condition not met.

Q. Threshold query (8OG:A repair function score >= -0.08) on `K492Q`
A. Condition met

Q. Okay, and `W124G` ?
A. Condition not met

Q. Okay, and `S486R` ?
A. Condition met

Q. Okay, and `V166I` ?
A. Condition met

Q. Okay, and `C269W` ?
A. Condition not met

Q. Okay, and `V117C` ?
A. Condition met

Q. Okay, and `A101E` ?
A. Condition met

Q. Okay, and `R154H` ?
A. Condition not met

Q. Okay, and `L403I` ?
A. Condition met

Q. Okay, and `M108K` ?
A. Condition not met

Q. Okay, and `H508M` ?
A. Condition met

Q. Okay, and `W146F` ?
A. Condition not met

Q. Okay, and `C477E` ?
A. Condition met

Q. Okay, and `L289S` ?
A. Condition met

Q. Okay, and `A212M` ?
A. Condition not met

Q. Okay, and `R398F` ?
A. Condition met

Q. Okay, and `P317M` ?
A. Condition met

Q. Okay, and `L72H` ?
A. Condition not met

Q. Okay, and `E303C` ?
A. Condition met

Q. Okay, and `T476I` ?
A. Condition met

Q. Okay, and `L289D` ?
A. Condition met

Q. Okay, and `S55Y` ?
A. Condition met

Q. Okay, and `Q363S` ?
A. Condition not met

Q. Okay, and `S515I` ?
A. Condition met

Q. Okay, and `R246M` ?
A. Condition not met

Q. Okay, and `V485L` ?
A. Condition met

Q. Okay, and `E319Q` ?
A. Condition met

Q. Okay, and `G193I` ?
A. Condition not met

Q. Okay, and `L349N` ?
A. Condition not met

Q. Okay, and `T204W` ?
A. Condition not met

Q. Okay, and `V117A` ?
A. Condition met

Q. Okay, and `F59W` ?
A. Condition not met

Q. Okay, and `V166C` ?
A. Condition met

Q. Okay, and `M125K` ?
A. Condition not met

Q. Okay, and `Y56F` ?
A. Condition met

Q. Okay, and `V362D` ?
A. Condition not met

Q. Okay, and `A405I` ?
A. Condition met

Q. Okay, and `R446S` ?
A. Condition not met

Q. Okay, and `R336M` ?
A. Condition not met

Q. Okay, and `Q202H` ?
A. Condition not met

Q. Okay, and `D249K` ?
A. Condition not met

Q. Okay, and `Q473P` ?
A. Condition met

Q. Okay, and `A51H` ?
A. Condition met

Q. Okay, and `R97M` ?
A. Condition met

Q. Okay, and `V242P` ?
A. Condition not met

Q. Okay, and `V206M` ?
A. Condition not met

Numbers sourced from the supplement of paper PMC11908140.
